B1: NP_015628.1 (parent)
chain: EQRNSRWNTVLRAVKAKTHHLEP

variants of: B1; experiment: protein stability index of a GFP-peptide fusion (GPS, HEK-293T) (PSI 1-6); higher = more stable; details: c terminus: native;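 note: lentivirally expressed fusion library, cells FACS-sorted into six equal-sized GFP/DsRed ratio bins, PSI computed from sequencing read fractions per bin weighted by bin number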
I would appreciate it if you labelled entries Satisfied when protein stability index is 3 or higher, otherwise Not satisfied.

[[record]]
mutation = "A13D"
class_assignment = "Not satisfied"

[[record]]
mutation = "V14Q"
class_assignment = "Not satisfied"

[[record]]
mutation = "A13M"
class_assignment = "Satisfied"

[[record]]
mutation = "K17F"
class_assignment = "Not satisfied"

[[record]]
mutation = "V14C"
class_assignment = "Not satisfied"


## Input Exam item: decide whether the reported protein stability index for "P23M" is at least 3.
## Output Satisfied

## Input For "R12N" then?
## Output Satisfied

## Input For "R6I" then?
## Output Satisfied
